Catalogue of pIC50 readings, one per entry.
Test Summary: Antiproliferation activity against human MS751 cells assessed as reduction in cell growth measured after 48 to 72 hrs by CCK-8 assay
Type: functional, cell-based
pIC50: −log10 of the molar value.

| Smiles Str | pIC50 |
| --- | --- |
| COc1cc(-c2ncncc2-c2ccc(OCC(F)(F)F)cc2)cc(OC)c1OC | 5.05 |
| CCOc1ccc(-c2cncnc2-c2cc(OC)c(OC)c(OC)c2)cc1C(F)(F)F | 4.60 |
| COc1cc(-c2ncncc2-c2ccc(OC(C)C)cc2)cc(OC)c1OC | 4.47 |

* * *

Test Summary: Antiproliferation activity against human MS751 cells assessed as reduction in cell growth measured after 48 to 72 hrs by CCK-8 assay
Format: functional, cell-based
One threshold, 800 nM, splits the recorded IC50 values: lower ones are fulfilled, equal or higher ones are not fulfilled.

| Compound | Group Label |
| --- | --- |
| COc1cc2c(c(OC)c1OC)-c1ccc(OC)c(=O)cc1[C@@H](NC(C)=O)CC2 [COLCHICINE] | fulfilled |
| COc1ccc(-c2cncnc2-c2cc(OC)c(OC)c(OC)c2)cc1F | not fulfilled |
| COc1cc(-c2ncncc2-c2ccc3cc[nH]c3c2)cc(OC)c1OC | not fulfilled |
| COc1cc(-c2ncncc2-c2ccc(Br)cc2)cc(OC)c1OC | not fulfilled |
| COc1cc(-c2ncncc2-c2ccc(B(O)O)cc2)cc(OC)c1OC | not fulfilled |
| COc1cc(-c2ncncc2-c2ccc(C(N)=O)cc2)cc(OC)c1OC | not fulfilled |
| COc1cc(-c2ncncc2-c2ccc3c(c2)OCO3)cc(OC)c1OC | not fulfilled |
| CCOc1ccc(-c2cncnc2-c2cc(OC)c(OC)c(OC)c2)cc1F | fulfilled |
| COc1ccc(-c2cncnc2-c2cc(OC)c(OC)c(OC)c2)cc1O | not fulfilled |

* * *

Test Summary: Half life in C57 nude mouse at 30 mg/kg, ip measured at 0.083 to 24 hrs by LC/MS/MS analysis
Assay type: ADME, organism-based
Assay Conditions: in vivo, time 0.083-24 hrs

| Smiles Str | Unit Name | half-life |
| --- | --- | --- |
| CCOc1ccc(-c2cncnc2-c2cc(OC)c(OC)c(OC)c2)cc1Cl | min | 93.6 |

* * *

Test Summary: Tmax in C57 nude mouse at 30 mg/kg, ip measured at 0.083 to 24 hrs by LC/MS/MS analysis
Format: ADME, organism-based
Assay Conditions: in vivo, time 0.083-24 hrs

| Smiles Str | Tmax, min |
| --- | --- |
| CCOc1ccc(-c2cncnc2-c2cc(OC)c(OC)c(OC)c2)cc1Cl | 15 |

* * *

Test Summary: Cmax in C57 nude mouse at 30 mg/kg, ip measured at 0.083 to 24 hrs by LC/MS/MS analysis
Format: ADME, organism-based
Parameters: dose 30 mg/kg, time 0.083-24 hrs, route ip
Assay Conditions: in vivo

| Smiles Str | Unit Name | Cmax |
| --- | --- | --- |
| CCOc1ccc(-c2cncnc2-c2cc(OC)c(OC)c(OC)c2)cc1Cl | µg/mL | 6.21 |

* * *

Test Target: Voltage-gated inwardly rectifying potassium channel KCNH2 (Homo sapiens, UniProt Q12809)
Sequence (Q12809 whole entry): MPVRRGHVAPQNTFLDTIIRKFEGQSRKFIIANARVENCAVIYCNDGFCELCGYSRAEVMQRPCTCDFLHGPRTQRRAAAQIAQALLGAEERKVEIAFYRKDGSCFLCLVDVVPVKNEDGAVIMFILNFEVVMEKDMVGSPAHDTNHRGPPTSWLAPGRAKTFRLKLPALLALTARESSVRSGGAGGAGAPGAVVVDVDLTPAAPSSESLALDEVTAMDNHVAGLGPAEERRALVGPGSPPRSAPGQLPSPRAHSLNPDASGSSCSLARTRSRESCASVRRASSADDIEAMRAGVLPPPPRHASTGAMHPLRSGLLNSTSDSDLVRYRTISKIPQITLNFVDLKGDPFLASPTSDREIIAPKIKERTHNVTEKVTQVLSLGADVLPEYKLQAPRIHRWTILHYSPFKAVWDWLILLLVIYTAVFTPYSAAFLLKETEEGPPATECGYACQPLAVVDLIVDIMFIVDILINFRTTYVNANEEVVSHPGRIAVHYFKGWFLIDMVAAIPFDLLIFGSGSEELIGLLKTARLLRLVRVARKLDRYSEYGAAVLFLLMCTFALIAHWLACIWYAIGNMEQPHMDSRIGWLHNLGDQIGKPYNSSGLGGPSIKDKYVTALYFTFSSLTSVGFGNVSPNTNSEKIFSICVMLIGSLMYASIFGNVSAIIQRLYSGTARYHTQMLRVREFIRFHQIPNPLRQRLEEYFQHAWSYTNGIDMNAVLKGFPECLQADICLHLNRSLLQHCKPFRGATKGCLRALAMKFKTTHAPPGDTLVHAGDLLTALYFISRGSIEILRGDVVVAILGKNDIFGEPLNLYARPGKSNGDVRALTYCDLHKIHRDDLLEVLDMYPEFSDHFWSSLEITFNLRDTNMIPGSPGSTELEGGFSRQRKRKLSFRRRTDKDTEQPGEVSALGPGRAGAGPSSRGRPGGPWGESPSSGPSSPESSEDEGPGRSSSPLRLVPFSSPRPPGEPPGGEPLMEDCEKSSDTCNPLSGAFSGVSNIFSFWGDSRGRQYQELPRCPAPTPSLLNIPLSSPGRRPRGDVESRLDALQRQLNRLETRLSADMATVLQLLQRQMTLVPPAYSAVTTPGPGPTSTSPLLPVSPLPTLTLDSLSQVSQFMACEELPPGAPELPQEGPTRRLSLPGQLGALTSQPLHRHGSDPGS
Test Summary: Inhibition of human ERG expressed in CHO cells with holding potential of -80 mV by whole cell patch clamp assay
Reported Endpoint: IC50 (µM)

| Smiles Str | Unit Name | Reported Measurement |
| --- | --- | --- |
| CCOc1ccc(-c2cncnc2-c2cc(OC)c(OC)c(OC)c2)cc1Cl | µM | 22.3 |
